- Protocol Details: cells
- Format: functional
Activity calls are given as the source filed them.
Hi there, I'd appreciate the recorded IC50 for every entry that follows.

Below: 4 molecules and their reported IC50.
CCOC(=O)Cn1cc(C#N)c2cccc(CC)c21 ... 4.78 µM (active)
CCOC(=O)c1c(NC(C)=O)sc2c(OCC(O)CNC(C)(C)C)c(Br)ccc12 (stereo not given) ... 10.2 µM (active)
COc1ccc(CCNc2nc(-c3ccccn3)cs2)cc1OC ... 1.14 µM (active)
CCOCCOC(=O)COc1ccc2c(-c3ccccc3)cc(=O)oc2c1 ... 1.77 µM (active)

Attention now shifts to the item below.
Prompt: Requested field: IC50. Item: Cc1csc(NC(=O)c2cc([N+](=O)[O-])cc([N+](=O)[O-])c2)n1
Completion: 13.2 µM (active)

###

- System: BJ
- Protocol Details: cytotoxicity toward BJ-TERT fibroblasts, dose response, cell-based, RAS-independent, luminescence (AID 1933)
- Type: functional
- Protocol Conditions: Homo sapiens
Calls of active or inactive are those of the source.
Hi there, I'd appreciate the recorded EC50 for every entry that follows.

CN(Cc1ccc(Cl)s1)C(=O)CCl ... 5.73 µM (active)
CCn1c2ccccc2c2cc(NC(=O)CNCc3ccccc3OC)ccc21 ... 7.54 µM (inconclusive)
CSc1nc(Oc2ccc3ccccc3c2)c2sccc2n1 ... 12.5 µM (active)

Prompt: Requested field: EC50. Item: COc1cc(C(=O)NCCOc2cc(C)cc(C)c2)cc(OC)c1OC
Completion: 16.3 µM (active)

###

Hi there, I'd appreciate the recorded IC50 for every entry that follows.
- Subject Of Test: Photoreceptor-specific nuclear receptor (Homo sapiens, UniProt Q9Y5X4)
- Sequence (Q9Y5X4 whole entry): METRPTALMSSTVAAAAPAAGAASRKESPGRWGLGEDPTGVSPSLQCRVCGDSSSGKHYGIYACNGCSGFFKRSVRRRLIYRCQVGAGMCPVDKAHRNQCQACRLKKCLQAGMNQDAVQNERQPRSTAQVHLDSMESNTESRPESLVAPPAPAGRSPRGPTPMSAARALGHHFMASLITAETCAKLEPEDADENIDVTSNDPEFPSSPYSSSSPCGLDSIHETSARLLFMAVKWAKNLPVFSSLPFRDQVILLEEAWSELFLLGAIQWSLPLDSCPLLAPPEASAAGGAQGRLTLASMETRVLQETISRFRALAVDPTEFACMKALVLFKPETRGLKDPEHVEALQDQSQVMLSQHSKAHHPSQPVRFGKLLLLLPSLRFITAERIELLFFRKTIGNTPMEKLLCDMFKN
- Format: functional, cell-based
Active and inactive are the calls of the source.

Below: 3 compounds and their reported IC50.
C[C@H]1CCC/C=C/[C@@H]2C[C@H](O)C[C@H]2[C@H](O)[C@H]([S+]([O-])c2ccc(O)cc2)CC(=O)O1 (stereo partly specified) ... 2.05 µM (active)
Clc1ccc(-n2ncc3c(N4CCCCCC4)ncnc32)cc1 ... 4.43 µM (active)
Cc1ccnc(NC(=S)N2CCN(c3cccc(C(F)(F)F)c3)CC2)c1 ... 1.76 µM (active)

Items follow; give IC50 for each.
1. N=C1SCC(=O)N1c1ncc(Cc2ccccc2Cl)s1
2. CC(=O)N1c2ccc(S(=O)(=O)N3CCC(C(=O)Nc4cccc(Cl)c4)CC3)cc2CC1C (stereo unspecified)

Completion:
3 µM (active)
1.47 µM (active)

Prompt: Requested field: IC50. Item: COc1ccc2c(CC(=O)Nc3ncc(C)s3)coc2c1
Completion: 1.11 µM (active)

###

- Subject Of Test: Paired box protein Pax-8 (Homo sapiens)
- Sequence (Q06710 whole entry): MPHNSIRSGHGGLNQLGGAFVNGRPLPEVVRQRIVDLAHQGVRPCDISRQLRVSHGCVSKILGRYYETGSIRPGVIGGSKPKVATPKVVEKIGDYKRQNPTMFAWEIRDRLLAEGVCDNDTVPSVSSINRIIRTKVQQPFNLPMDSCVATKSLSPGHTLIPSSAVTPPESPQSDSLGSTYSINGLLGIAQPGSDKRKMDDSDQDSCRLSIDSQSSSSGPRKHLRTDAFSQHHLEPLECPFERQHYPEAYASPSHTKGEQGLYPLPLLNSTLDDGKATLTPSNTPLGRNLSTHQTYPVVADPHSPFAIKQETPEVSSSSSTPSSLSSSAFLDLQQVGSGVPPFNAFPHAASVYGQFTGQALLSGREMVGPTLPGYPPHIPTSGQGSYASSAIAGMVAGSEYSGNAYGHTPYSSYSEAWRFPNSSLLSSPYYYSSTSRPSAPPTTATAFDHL
- Protocol Details: inhibitors of PAX8-driven TPO luciferase reporter, dose response, RMG-I cells, cherry-pick (AID 687027);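 also: luciferase reporter driven by Pax8 target thyroperoxidase promoter measured by SteadyGlo luminescence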
- Assay type: functional, cell-based
Active and inactive are the calls of the source.
Metric: AC50

Below: 3 compounds and their reported AC50.
Nc1ncnc2c(C3OC(CO)C(O)C3O)scc12 (stereo not drawn) ... < 0.26 µM (active)
Cc1ccc(S(=O)(=O)Nc2ccc3c(c2)C(=O)N([C@@H](C)CO)C[C@@H](C)[C@H](CN(C)S(=O)(=O)c2ccc(Cl)cc2)OCCCC[C@@H](C)O3)cc1 ... 4.47 µM (active)
C[C@]12CC[C@H](O)C[C@@H]1CC[C@@H]1[C@@H]2CC[C@]2(C)[C@@H](C3=CC(=O)OC3)CC[C@]12O ... 2.09 µM (active)

Items follow; give AC50 for each.
1. C[C@@H]1CCCCO[C@@H](CN(C)Cc2ccc(C(F)(F)F)cc2)[C@@H](C)CN([C@@H](C)CO)C(=O)c2cc(NS(=O)(=O)c3ccc(F)cc3)ccc2O1
2. N#C[C@H]1[C@H](c2ccc(C#CC3CCCCC3)cc2)[C@H](CO)N1C(=O)Nc1ccc(F)cc1
3. O=C(N/N=C/c1ccsc1)c1cc(-c2cccs2)nc2ccccc12
4. COc1ccc(-c2cc(-c3ccccc3)c(C#N)c(S(C)(=O)=O)n2)cc1

Completion:
8.7 µM (active)
20.8 µM (active)
51.8 µM (active)
6.98 µM (active)

Items follow; give AC50 for each.
1. CC(=O)Nc1ccc(-c2ccnc3c2CC(C(=O)NCc2ccccc2)O3)cc1 (stereo not drawn)
2. O=C(C[C@@H]1CC[C@H]2[C@@H](COC[C@@H](O)CN2Cc2cccc(C(F)(F)F)c2)O1)NCc1ccc(F)cc1
3. C[C@@H]1CCCCO[C@@H](CN(C)C(=O)c2ccccc2)[C@@H](C)CN([C@@H](C)CO)C(=O)c2cc(NC(=O)Nc3ccc(C(F)(F)F)cc3)ccc2O1
4. C[C@H](CO)N1C[C@H](C)[C@@H](CN(C)Cc2ccc(Cl)c(Cl)c2)Oc2ccc(NS(=O)(=O)c3ccccc3)cc2CC1=O
5. Cc1ccc(S(=O)(=O)N[C@@H]2C=C[C@@H](CC(=O)N3CCC(Cc4ccccc4)CC3)O[C@@H]2CO)cc1
6. C[C@H](CO)N1C[C@H](C)[C@@H](CN(C)S(=O)(=O)c2ccc(-c3ccccc3)cc2)OCc2cn(nn2)CCCC1=O

Completion:
["1.5 µM (active)", "27.9 µM (active)", "8.77 µM (active)", "9.45 µM (active)", "13.3 µM (active)", "3.99 µM (active)"]

###

Hi there, I'd appreciate the recorded IC50 for every entry that follows.
- Subject Of Test: Glyceraldehyde-3-phosphate dehydrogenase (Homo sapiens, UniProt P04406)
- Sequence (P04406 whole entry): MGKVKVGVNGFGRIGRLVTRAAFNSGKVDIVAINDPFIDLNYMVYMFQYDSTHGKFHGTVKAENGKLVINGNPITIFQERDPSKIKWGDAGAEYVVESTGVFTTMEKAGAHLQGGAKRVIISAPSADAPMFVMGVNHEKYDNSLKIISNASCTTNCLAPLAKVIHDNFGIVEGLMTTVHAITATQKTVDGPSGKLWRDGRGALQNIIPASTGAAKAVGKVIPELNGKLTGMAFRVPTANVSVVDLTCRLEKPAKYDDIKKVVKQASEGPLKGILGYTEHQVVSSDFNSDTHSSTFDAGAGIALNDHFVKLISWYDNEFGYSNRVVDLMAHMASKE

Below: 3 molecules and their reported IC50.
COc1cccc(N2C(=O)C(Cl)=C(N3CCN(C/C=C/c4ccccc4)CC3)C2=O)c1 ... > 50 µM (inconclusive)
O=C1C2CC=CCC2C(=O)N1c1nc[nH]n1 (centres undefined) ... > 100 µM (not active)
CC(C)c1nc(N)nn1-c1ccccc1 ... > 100 µM (not active)

Attention now shifts to the item below.
Prompt: Requested field: IC50. Item: CCCc1c(O)oc2nnc(C)c-2c1C
Completion: > 100 µM (not active)

###

- Subject Of Test: Endoribonuclease toxin MazF (Escherichia coli K-12, UniProt P0AE70)
- Sequence (P0AE70 whole entry): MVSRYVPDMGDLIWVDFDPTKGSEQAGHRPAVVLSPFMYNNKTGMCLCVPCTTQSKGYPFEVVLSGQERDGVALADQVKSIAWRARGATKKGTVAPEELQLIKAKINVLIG
- Protocol Details: MazF toxin RNase activators, dose response, biochemical, fluorescence, single-stranded RNA substrate, uHTS hits (AID 588481)
- Assay type: functional
The source made the active and inactive calls.
Outcome field: choose from class 1 (active), class 0 (inactive)

Examples from the recorded data:
O=[N+]([O-])c1ccc(Nc2ccccc2O)c2nonc12 ... class 0
O=[N+]([O-])c1ccc(S(=O)(=O)N[N-][C+]2CCCCC2)cc1 ... class 0
Cc1ccc(CNC(=O)c2ccc(CNS(=O)(=O)c3ccc4c(c3)C(C)(C)C(=O)N4C)cc2)o1 ... class 1

Continue with the next compound.
Prompt: Called result for Oc1cc(O)cc(/C=C/c2ccc(O)c(O)c2)c1
Completion: class 0

###

- Subject Of Test: Rac GTPase-activating protein 1 (Homo sapiens, UniProt Q9H0H5)
- Sequence (Q9H0H5 whole entry): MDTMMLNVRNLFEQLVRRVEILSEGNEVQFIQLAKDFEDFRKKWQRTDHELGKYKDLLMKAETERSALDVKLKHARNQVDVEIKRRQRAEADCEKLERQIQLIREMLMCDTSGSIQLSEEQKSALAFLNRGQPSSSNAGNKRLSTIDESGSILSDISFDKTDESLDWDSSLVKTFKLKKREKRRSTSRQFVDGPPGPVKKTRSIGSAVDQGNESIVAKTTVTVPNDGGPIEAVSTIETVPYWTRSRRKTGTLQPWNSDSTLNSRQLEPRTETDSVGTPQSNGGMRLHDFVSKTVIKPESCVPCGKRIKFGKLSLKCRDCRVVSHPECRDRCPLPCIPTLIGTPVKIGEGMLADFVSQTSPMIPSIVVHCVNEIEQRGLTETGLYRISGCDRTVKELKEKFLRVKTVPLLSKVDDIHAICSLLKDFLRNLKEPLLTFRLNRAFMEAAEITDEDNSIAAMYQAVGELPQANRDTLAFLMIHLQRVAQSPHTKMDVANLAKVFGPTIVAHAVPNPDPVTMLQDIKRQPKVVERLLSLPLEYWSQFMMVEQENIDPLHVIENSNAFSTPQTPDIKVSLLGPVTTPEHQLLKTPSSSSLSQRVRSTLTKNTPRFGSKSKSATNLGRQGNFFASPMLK
- Protocol Details: MgcRacGAP GTPase-activating activity inhibitors, confirmation, biochemical, ADP Hunter fluorescence, primary and confirmatory (AID 624330)
- Assay type: functional
Activity calls are given as the source filed them.
Metric: IC50

Below: 3 compounds and their reported IC50.
NCC[C@H](O)C(=O)N[C@@H]1C[C@H](N)[C@@H](O[C@H]2O[C@H](CN)[C@@H](O)[C@H](O)[C@H]2O)[C@H](O)[C@H]1O[C@H]1O[C@H](CO)[C@@H](O)[C@H](N)[C@H]1O ... 113 µM (active)
C[C@H]1CCC/C=C/[C@@H]2C[C@H](O)C[C@H]2[C@H](O)[C@H]([S+]([O-])c2ccc(O)cc2)CC(=O)O1 (some centres undefined) ... 231 µM (active)
Nc1ccc(O)c([N+](=O)[O-])c1 ... 42.8 µM (active)

Items follow; give IC50 for each.
1. C=CCn1c(SCC(C)=O)nnc1-c1cc(-c2ccccc2)sc1N
2. O=C(N/N=C/c1ccc(O)cc1)c1csc2c1CCCC2
3. COc1ccc2cc(OCC(=O)NNC(=O)Nc3ccc(F)cc3)ccc2c1
4. O=C1C(=C(I)I)c2ccccc2-c2ccccc21
5. COc1ccc(/C=N/NC(=O)c2ccc(CSc3nc(C)cc(C)n3)cc2)cc1O
6. Nc1ccn([C@@H]2O[C@H](CNCC3=CCOc4ccc(O)cc43)[C@@H](O)[C@H]2O)c(=O)n1

Completion:
1: 29.1 µM (active); 2: 51.6 µM (active); 3: 65 µM (active); 4: 19.8 µM (active); 5: 114 µM (active); 6: 92.4 µM (active)

These data points were gathered from ChEMBL document CHEMBL1201862.
